# PROCEDURE TEXT: endothelial E-selectin expression blockers – imaging, HUVEC, immunofluorescence, MLSMR starter and 10KST1 sets, primary screen (AID 487);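 note: signal is fraction of cell area covered by stained E-selectin grains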
# CONDITIONS USED: HUVEC TNFalpha-induced E-selectin immunofluorescence imaging, at 2 µM; hits give high values
Category scheme (inhibition): 1 = under -60%, 2 = from -60% up to -20%, 3 = -20% and over

// known answers, use as guide
{"COMPOUND": "Cn1c(=O)c2ccccc2n(Cc2ccccc2F)c1=O", "ASSIGNED CLASS": 2}
{"COMPOUND": "C/C(NC1CCCC1)=C(/C#N)C(N)=O", "ASSIGNED CLASS": 2}
{"COMPOUND": "COc1ccc(C(=O)OCC(=O)NCc2ccco2)cc1OC", "ASSIGNED CLASS": 3}
{"COMPOUND": "CCN(Cc1cc2cc(OC)ccc2[nH]c1=O)C(=O)Cc1ccc(OC)cc1", "ASSIGNED CLASS": 2}
{"COMPOUND": "O=C(Cn1c(=O)oc2ccccc21)N1CCN(c2ccccc2)CC1", "ASSIGNED CLASS": 3}
{"COMPOUND": "O=C(NCC1CCCO1)c1cc(-c2ccncc2)nc2ccc(S(=O)(=O)N3CCOCC3)cc12 (stereo unspecified)", "ASSIGNED CLASS": 1}
{"COMPOUND": "CCCCN(Cc1cc2cc(OC)ccc2[nH]c1=O)C(=O)COc1ccccc1", "ASSIGNED CLASS": 2}
{"COMPOUND": "COc1cccc(-c2nc(-c3ccc(NC(=O)Cc4ccccc4OC)cc3)no2)c1", "ASSIGNED CLASS": 1}
{"COMPOUND": "CCC(=O)Nc1ccc(NC(=O)c2ccccn2)cn1", "ASSIGNED CLASS": 3}
{"COMPOUND": "O=C1c2ccccc2C(=O)N1CCCn1nnc(-c2ccc(N3CCOCC3)cc2)n1", "ASSIGNED CLASS": 1}

Below: the item to evaluate.
Ask: Bin this entry: CCCOC(=O)C1[C@H]2C(=O)N(CCCOC)C[C@]23C=C[C@H]1O3 (stereo partly specified)
Result: 2

---

We begin with a simple list: items and their reported NADPH fluorescence slope.
# STUDY SYSTEM: Voltage-gated potassium channel subunit beta-2 (Rattus norvegicus)
# PROCEDURE TEXT: enhancers of rat Kvbeta2 NADPH turnover – biochemical, NADPH fluorescence, primary screen (AID 623);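 note: fluorescence intensity change per second fitted from 20 to 320 s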
# CONDITIONS USED: Recombinant KvBeta, NADPH fluorescence decrease slope, 10 min; at 10 µM; hits give low values
No unit in the answer, only the number.

Illustrative cases are given below, each with its answer.
{"COMPOUND": "COc1ccc(CCN2C(=O)CC(N3CCN(S(=O)(=O)c4ccccc4)CC3)C2=O)cc1 (configuration not stated)", "NADPH fluorescence slope": "-8.5e-06"}
{"COMPOUND": "COc1cc(OC)cc(-c2nc3cc(C)ccc3o2)c1", "NADPH fluorescence slope": "-4.6e-05"}
{"COMPOUND": "O=C(O)c1ccc(C2SCC(=O)N2Cc2ccccc2)cc1 (configuration not stated)", "NADPH fluorescence slope": "1.2e-05"}
{"COMPOUND": "O=C(Nc1ccccc1C(=O)N1CCCCCC1)c1cccc(S(=O)(=O)N2CCOCC2)c1", "NADPH fluorescence slope": "-2.1e-05"}
{"COMPOUND": "Cc1ccc(CNC(=O)C2CC(=O)OC23CCCC3)c(C)c1 (configuration not stated)", "NADPH fluorescence slope": "4.6e-07"}
{"COMPOUND": "CCOC(=O)N1CCN(C(=O)C2CC(=O)N(Cc3ccc(OC)cc3)C2)CC1 (configuration not stated)", "NADPH fluorescence slope": "-1e-05"}
{"COMPOUND": "COc1ccc(CC(=O)NCc2cccs2)cc1", "NADPH fluorescence slope": 0.000126}
{"COMPOUND": "COc1ccc(N(CC(=O)N2CCCCC2)S(=O)(=O)c2ccccc2)c(OC)c1", "NADPH fluorescence slope": "-7.4e-06"}
{"COMPOUND": "O=C(O)CCc1ccc(-c2cccs2)n1NC(=O)c1ccccc1Br", "NADPH fluorescence slope": "-5.2e-05"}
{"COMPOUND": "O=C(Nc1c(-c2ccccc2)nc2ccccn12)c1ccco1", "NADPH fluorescence slope": "4.7e-05"}

Ask: If you can, please state the reported NADPH fluorescence slope value of CSCCC(NC(=O)CCN1C(=O)c2ccccc2C1=O)C(=O)O (configuration not stated) .
Result: 2e-07

Ask: If you can, please state the reported NADPH fluorescence slope value of Cc1ccc(-c2cn3cccnc3n2)cc1NC(=O)c1ccc(Br)o1 .
Result: 1.6e-06

Ask: If you can, please state the reported NADPH fluorescence slope value of Cc1cc(C)c2c(n1)nn1c(N3CCN(c4ccccc4C)CC3)cc(C)nc21 .
Result: 1.5e-05

Ask: If you can, please state the reported NADPH fluorescence slope value of O=C(CCn1c(=O)sc2ccccc21)NCc1ccc2c(c1)OCO2 .
Result: -5.2e-05

Ask: If you can, please state the reported NADPH fluorescence slope value of COC(=O)c1sc(S(=O)(=O)N2CCN(c3ccccc3)CC2)c(C(=O)OC)c1C .
Result: -3.6e-05

Ask: If you can, please state the reported NADPH fluorescence slope value of Cc1ccc2cc(CN(CC3CCCO3)S(=O)(=O)c3ccc4c(c3)OCCO4)c(=O)[nH]c2c1C (configuration not stated) .
Result: -8.2e-06

Ask: If you can, please state the reported NADPH fluorescence slope value of CCC(C)(C(=O)NC1CCCC1)N(Cc1cccs1)C(=O)Cc1cccs1 (configuration not stated) .
Result: -0.000168

Ask: If you can, please state the reported NADPH fluorescence slope value of CN(C)c1cccc(NC(=O)CCc2ccccc2)c1 .
Result: 9.8e-06

Ask: If you can, please state the reported NADPH fluorescence slope value of CCOc1ccc(-c2nc(S(=O)(=O)c3ccccc3)c(NCc3cccnc3)o2)cc1 .
Result: 3.2e-06

Ask: If you can, please state the reported NADPH fluorescence slope value of CC(=O)c1c(OC(=O)c2ccco2)c2ccccc2n1C .
Result: -1.2e-05

Ask: If you can, please state the reported NADPH fluorescence slope value of Cc1cc(C)cc(NS(=O)(=O)c2ccc3[nH]c(=O)[nH]c3c2)c1 .
Result: 4.9e-07

Ask: If you can, please state the reported NADPH fluorescence slope value of COc1cccc(NC(=O)COc2ccccc2C(N)=O)c1 .
Result: 6.4e-05

Ask: If you can, please state the reported NADPH fluorescence slope value of O=c1c2[nH]c3ccc(Cl)cc3c2ncn1Cc1ccccn1 .
Result: -4.3e-05

Ask: If you can, please state the reported NADPH fluorescence slope value of CN(C)C(=O)CSc1nnc2sc3ccccc3n12 .
Result: -2.4e-05

Ask: If you can, please state the reported NADPH fluorescence slope value of Cc1cc(/C=N/n2cnnc2)c(C)n1-c1cccc(Cl)c1 .
Result: -3.8e-05

Ask: If you can, please state the reported NADPH fluorescence slope value of CCC(=O)Nc1nn(C)c2nc3c(C)cccc3cc12 .
Result: -6.4e-06

Ask: If you can, please state the reported NADPH fluorescence slope value of O=S(=O)(NCCc1ccncc1)c1cc(Br)ccc1F .
Result: -1.6e-05

---

# STUDY SYSTEM: Voltage-gated potassium channel subunit beta-2 (Rattus norvegicus)
# PROCEDURE TEXT: inhibitors of rat Kvbeta2 reductase activity – biochemical, NADPH fluorescence, primary screen (AID 622);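 note: slope of raw intensity against log time taken from 70 to 1610 s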
# CONDITIONS USED: recombinant KvBeta, 4-cyanobenzaldehyde reduction, at 10 µM, hits give high values
ASSAY METRIC: fluorescence slope
No unit in the answer, only the number.

{"MOLECULE": "COc1ccc(NC(=O)Nc2ccc(N3CCCC3=O)cc2)cc1OC", "ENDPOINT RESULT": -0.368}
{"MOLECULE": "CCC1c2ccc(C)n2CCN1C(=O)Nc1ccccc1OC (stereo unspecified)", "ENDPOINT RESULT": -0.402}
{"MOLECULE": "COC(=O)c1ccc(C2C(C#N)=C(N)Oc3cc(C)n(C)c(=O)c32)cc1 (stereo unspecified)", "ENDPOINT RESULT": -0.499}
{"MOLECULE": "Cc1ccc(NC(=O)CSc2nnc(-c3ccc(S(=O)(=O)N4CCOCC4)cc3)n2C)cc1", "ENDPOINT RESULT": -0.384}
{"MOLECULE": "O=C(OCC(=O)c1cccs1)C1=COCCO1", "ENDPOINT RESULT": -0.345}
{"MOLECULE": "Cc1ccc(/C(O)=C2\\C(=O)C(=O)N(CCCN(C)C)C2c2ccccn2)cc1 (stereo unspecified)", "ENDPOINT RESULT": -0.514}
{"MOLECULE": "CCOC(=O)c1ccccc1NC(=O)c1c(O)c2ccccc2n(CC)c1=O", "ENDPOINT RESULT": -0.489}
{"MOLECULE": "Cc1cccc(N(CC(=O)Nc2ccc(CC#N)cc2)S(C)(=O)=O)c1", "ENDPOINT RESULT": -0.483}

Ask: If you can, please state the reported fluorescence slope value of COc1ccccc1C(=O)N1CCNC(=O)C1CC(=O)Nc1ccc(Cl)cc1 (stereo unspecified) .
Result: -0.565

Ask: If you can, please state the reported fluorescence slope value of Cc1cccc(C)c1NC(=O)CC(NCc1ccco1)C(=O)O (stereo unspecified) .
Result: -0.364

Ask: If you can, please state the reported fluorescence slope value of O=S1(=O)CCC(N=Cc2cc(Br)ccc2O)C1 (stereo unspecified) .
Result: -0.498
